molecular target: IKZF1 (Homo sapiens, UniProt Q13422+Q96SW2); construct: expressed in transfected cells; assay: HiBiT protein tagging assay, in vitro IKZF1 degradation (HEK293); format: cell-based; conditions: HEK293, 18-24 hr incubation, normalized to DMSO control, read-out: IKZF1 EC50
Sequence (Q13422 whole entry): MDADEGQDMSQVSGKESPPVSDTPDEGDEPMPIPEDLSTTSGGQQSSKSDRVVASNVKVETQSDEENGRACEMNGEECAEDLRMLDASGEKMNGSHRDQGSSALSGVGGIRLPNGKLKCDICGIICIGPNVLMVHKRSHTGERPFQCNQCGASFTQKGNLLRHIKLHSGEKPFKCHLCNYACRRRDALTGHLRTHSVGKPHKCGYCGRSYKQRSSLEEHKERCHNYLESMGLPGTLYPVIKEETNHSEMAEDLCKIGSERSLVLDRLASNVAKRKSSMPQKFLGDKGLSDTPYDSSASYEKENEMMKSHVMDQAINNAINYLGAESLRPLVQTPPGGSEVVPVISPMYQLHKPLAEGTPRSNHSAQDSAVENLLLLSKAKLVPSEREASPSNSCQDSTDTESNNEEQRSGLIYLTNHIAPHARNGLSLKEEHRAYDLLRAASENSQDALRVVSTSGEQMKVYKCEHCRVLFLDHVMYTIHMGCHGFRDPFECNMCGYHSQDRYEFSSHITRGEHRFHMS
Sequence (Q96SW2 whole entry): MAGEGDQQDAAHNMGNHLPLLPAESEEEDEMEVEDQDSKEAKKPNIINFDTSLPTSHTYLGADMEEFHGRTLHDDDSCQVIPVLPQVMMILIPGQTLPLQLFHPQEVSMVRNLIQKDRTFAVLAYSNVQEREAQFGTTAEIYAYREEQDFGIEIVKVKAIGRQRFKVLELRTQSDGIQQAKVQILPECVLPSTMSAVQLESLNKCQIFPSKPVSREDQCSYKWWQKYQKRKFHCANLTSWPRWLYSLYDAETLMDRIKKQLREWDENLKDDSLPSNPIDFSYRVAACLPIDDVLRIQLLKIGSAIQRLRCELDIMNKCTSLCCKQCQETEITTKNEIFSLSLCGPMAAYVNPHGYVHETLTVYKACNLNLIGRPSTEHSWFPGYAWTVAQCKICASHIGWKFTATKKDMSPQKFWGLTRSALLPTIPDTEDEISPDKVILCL
Sequence (Q16531 whole entry partner): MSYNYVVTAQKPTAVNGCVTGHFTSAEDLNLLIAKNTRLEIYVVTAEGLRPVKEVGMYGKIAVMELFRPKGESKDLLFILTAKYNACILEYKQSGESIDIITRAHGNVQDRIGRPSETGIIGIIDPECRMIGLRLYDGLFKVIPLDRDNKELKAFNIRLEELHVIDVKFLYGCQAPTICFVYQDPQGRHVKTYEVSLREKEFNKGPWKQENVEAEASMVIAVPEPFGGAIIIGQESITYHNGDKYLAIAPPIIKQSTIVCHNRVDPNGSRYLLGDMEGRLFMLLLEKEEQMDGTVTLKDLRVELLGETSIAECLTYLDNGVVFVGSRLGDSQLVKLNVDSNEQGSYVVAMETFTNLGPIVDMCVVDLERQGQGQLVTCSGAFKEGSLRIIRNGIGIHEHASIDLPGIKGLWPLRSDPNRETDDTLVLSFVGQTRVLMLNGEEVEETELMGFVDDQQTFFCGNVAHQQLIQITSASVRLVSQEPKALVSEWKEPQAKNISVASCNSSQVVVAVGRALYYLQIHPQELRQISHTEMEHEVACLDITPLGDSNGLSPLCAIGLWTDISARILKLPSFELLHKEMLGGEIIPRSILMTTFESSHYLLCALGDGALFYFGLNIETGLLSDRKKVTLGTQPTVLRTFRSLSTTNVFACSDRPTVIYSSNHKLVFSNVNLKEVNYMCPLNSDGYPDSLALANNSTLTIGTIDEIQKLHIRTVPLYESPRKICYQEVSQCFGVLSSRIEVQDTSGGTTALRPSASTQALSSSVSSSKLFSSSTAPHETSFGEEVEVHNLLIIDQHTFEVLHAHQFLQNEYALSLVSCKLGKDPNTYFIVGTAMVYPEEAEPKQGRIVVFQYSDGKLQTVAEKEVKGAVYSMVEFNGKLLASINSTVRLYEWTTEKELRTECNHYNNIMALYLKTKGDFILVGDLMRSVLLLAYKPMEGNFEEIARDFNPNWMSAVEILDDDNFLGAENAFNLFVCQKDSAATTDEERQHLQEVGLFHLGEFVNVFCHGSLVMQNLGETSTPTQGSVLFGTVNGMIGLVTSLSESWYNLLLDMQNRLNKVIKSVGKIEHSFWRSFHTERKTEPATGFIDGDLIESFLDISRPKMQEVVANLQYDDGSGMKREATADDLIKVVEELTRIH
observable: DC50

Task item: Need DC50, item O=C1CCC(N2Cc3cc(CN[C@H]4CC[C@](O)(c5ccccc5)CC4)ccc3C2=O)C(=O)N1 (stereo partly shown)
Reply: 29 nM

Task item: Need DC50, item O=C1CCC(N2Cc3cc(CN[C@@H]4CCCN(C(c5ccccc5)C(F)(F)F)C4)ccc3C2=O)C(=O)N1 (stereo partly shown)
Reply: 10 nM

Task item: Need DC50, item C[C@@H]1[C@@H](NCc2ccc3c(c2)CN(C2CCC(=O)NC2=O)C3=O)C[C@H]2C[C@@H]1C2(C)C (stereo partly shown)
Reply: > 10000 nM

Task item: Need DC50, item O=C1CCC(N2Cc3cc(CNC4CCC4)ccc3C2=O)C(=O)N1 (stereo not shown)
Reply: 51 nM

###

target: IKZF1 (Homo sapiens, UniProt Q13422+Q96SW2); construct: expressed in transfected cells; assay: HiBiT protein tagging assay, in vitro IKZF1 degradation (HEK293); assay type: cell-based; conditions: HEK293, 18-24 hr incubation, normalized to DMSO control, read-out: IKZF1 Dmax (maximum degradation at the highest concentration tested)
observable: Dmax (%)
Kindly provide the numeric value in % only, without the unit symbol.

Task item: Need Dmax, item N#CC[C@H]1CC[C@H](NCc2ccc3c(c2)CN(C2CCC(=O)NC2=O)C3=O)CC1 (stereo partly shown) [Example 63]
Reply: 44

Task item: Need Dmax, item O=C1CCC(N2Cc3cc(CNC4CCN(c5ccccn5)CC4)ccc3C2=O)C(=O)N1 (stereo not shown) [Example 35]
Reply: 85

Task item: Need Dmax, item O=C1CCC(N2Cc3cc(CN[C@@H]4C[C@H](F)CN(Cc5ccccc5)C4)ccc3C2=O)C(=O)N1 (stereo partly shown) [Example 45]
Reply: 93

Task item: Need Dmax, item CC(C)NCc1ccc2c(c1)CN(C1CCC(=O)NC1=O)C2=O (stereo not shown) [Example 9]
Reply: 51

###

Biological target: IKZF2 (Homo sapiens, UniProt Q96SW2+Q9UKS7)
Construct: expressed in transfected cells
Sequence (Q9UKS7 1-500 isoform Q9UKS7-2): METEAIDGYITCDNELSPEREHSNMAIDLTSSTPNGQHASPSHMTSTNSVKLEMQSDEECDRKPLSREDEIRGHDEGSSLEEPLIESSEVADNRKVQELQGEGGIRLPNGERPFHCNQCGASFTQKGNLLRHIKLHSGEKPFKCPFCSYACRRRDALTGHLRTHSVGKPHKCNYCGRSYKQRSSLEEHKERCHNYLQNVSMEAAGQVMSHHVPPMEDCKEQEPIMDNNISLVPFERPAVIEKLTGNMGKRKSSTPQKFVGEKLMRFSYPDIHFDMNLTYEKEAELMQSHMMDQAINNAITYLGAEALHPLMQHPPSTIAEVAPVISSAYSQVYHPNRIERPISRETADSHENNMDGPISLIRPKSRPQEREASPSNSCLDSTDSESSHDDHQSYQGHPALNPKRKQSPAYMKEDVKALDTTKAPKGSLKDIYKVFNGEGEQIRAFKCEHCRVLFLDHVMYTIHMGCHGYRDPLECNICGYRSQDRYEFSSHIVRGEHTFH
Sequence (Q96SW2 whole entry): as the sequence (Q96SW2 whole entry) above
Sequence (Q16531 whole entry partner): as the sequence (Q16531 whole entry partner) above
Assay: HiBiT protein tagging assay, in vitro IKZF2 degradation (HEK293)
Format: cell-based
Details: HEK293, HiBiT assay, HEK293, 18-24 hr incubation, normalized to DMSO control; read-out: IKZF2 Dmax (maximum degradation at the highest concentration tested)
Procedure: In vitro degradation of IKZF1 and IKZF2 was measured using HiBiT protein tagging and detection technology (Promega). HiBiT technology (Promega) was used to develop the quantitative assays to measure the cellular IKZFs level by tagging an 11 amino acid HiBit peptides VSGWRLFKKIS (SEQ ID NO:1) to the protein of interest. Reporter plasmids were generated by fusing a linker sequence (GSSGGSSG; SEQ ID NO:2) followed by the HiBiT tag at the C terminus of IKZF1 and IKZF2. […]
observable: Dmax (%)
Kindly provide the numeric value in % only, without the unit symbol.

Task item: Need Dmax, item CC1(NCc2ccc3c(c2)CN(C2CCC(=O)NC2=O)C3=O)CCCC1 (centres unmarked) [Example 151]
Reply: 81

Task item: Need Dmax, item O=C1CCC(N2Cc3cc(CN[C@H]4CC[C@H](C(F)(F)F)CC4)ccc3C2=O)C(=O)N1 (some centres unmarked) [Example 77]
Reply: 74

Task item: Need Dmax, item O=C1CCC(N2Cc3cc(CN[C@H]4C[C@H]5CC[C@@H]4C5)ccc3C2=O)C(=O)N1 (some centres unmarked) [Example 72]
Reply: 23

Task item: Need Dmax, item O=C1CCC(N2Cc3cc(CN[C@@H]4CCCN(Cc5ccncc5)C4)ccc3C2=O)C(=O)N1 (some centres unmarked) [Example 125]
Reply: 86

Task item: Need Dmax, item O=C1CCC(N2Cc3cc(CN[C@H]4CC[C@](O)(c5ccccc5)CC4)ccc3C2=O)C(=O)N1 (some centres unmarked) [Example 65]
Reply: 90

Task item: Need Dmax, item O=C1CCC(N2Cc3cc(CN[C@H]4CC[C@@](O)(c5ccccc5)CC4)ccc3C2=O)C(=O)N1 (some centres unmarked) [Example 66]
Reply: 83

Task item: Need Dmax, item O=C1CCC(N2Cc3cc(CN[C@@H]4CCCN(Cc5ccc(Cl)cc5)C4)ccc3C2=O)C(=O)N1 (some centres unmarked) [Example 100]
Reply: 97

Task item: Need Dmax, item C[C@@H]1CCCC[C@H]1NCc1ccc2c(c1)CN(C1CCC(=O)NC1=O)C2=O (some centres unmarked) [Example 101]
Reply: 71
